# Tested System: IKKε (Homo sapiens (Human), UniProt Q14164)
# Sequence (Q14164 whole entry): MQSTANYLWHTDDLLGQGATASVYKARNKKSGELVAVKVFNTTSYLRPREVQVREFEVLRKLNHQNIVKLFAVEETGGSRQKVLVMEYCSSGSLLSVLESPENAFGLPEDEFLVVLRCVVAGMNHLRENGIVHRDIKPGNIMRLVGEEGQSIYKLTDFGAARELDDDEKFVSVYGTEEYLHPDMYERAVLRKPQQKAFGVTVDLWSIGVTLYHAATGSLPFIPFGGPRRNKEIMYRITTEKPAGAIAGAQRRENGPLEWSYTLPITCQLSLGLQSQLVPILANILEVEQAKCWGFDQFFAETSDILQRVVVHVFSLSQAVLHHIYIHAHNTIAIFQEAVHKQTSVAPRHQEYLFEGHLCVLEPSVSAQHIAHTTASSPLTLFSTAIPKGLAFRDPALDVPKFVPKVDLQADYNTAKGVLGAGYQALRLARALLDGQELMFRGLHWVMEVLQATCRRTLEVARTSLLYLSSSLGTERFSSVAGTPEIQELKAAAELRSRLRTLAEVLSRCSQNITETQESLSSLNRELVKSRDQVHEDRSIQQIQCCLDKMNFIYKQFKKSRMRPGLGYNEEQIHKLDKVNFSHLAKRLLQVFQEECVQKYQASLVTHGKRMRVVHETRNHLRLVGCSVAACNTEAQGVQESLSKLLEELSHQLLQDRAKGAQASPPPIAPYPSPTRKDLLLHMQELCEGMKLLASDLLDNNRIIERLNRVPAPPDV
# Assay Notes: IKKε TR-FRET enzymatic assay
# Type: biochemical
# Recorded Conditions: read-out: IKKe IC50
// classify(record): look up IC50 in ranges one = under 8 nM, two = from 8 nM up to 30 nM, three = 30 nM and over

[
  {
    "Compound": "N#Cc1cc(-c2ncnc(Nc3ccccc3)n2)ccc1OC1CCOCC1",
    "Class": "two"
  },
  {
    "Compound": "C[C@H](O)C(=O)N1CC[C@H](Oc2ccc(-c3ncnc(Nc4ccc(N5CCCOCC5)cc4)n3)cc2C#N)[C@H](F)C1",
    "Class": "one"
  },
  {
    "Compound": "N#Cc1cc(-c2ncnc(Nc3ccc(N4CCN(C5COC5)CC4)cc3)n2)ccc1O[C@H]1CCN(C(=O)[C@@H]2CCC(=O)N2)CC1(F)F",
    "Class": "one"
  },
  {
    "Compound": "C[C@H](O)C(=O)N1CC[C@H](Oc2ccc(-c3ncnc(Nc4ccc([C@H]5CCCN5)cc4)n3)cc2C#N)[C@H](F)C1",
    "Class": "one"
  },
  {
    "Compound": "N#Cc1cc(-c2ncnc(Nc3ccc(N4CCN(C5COC5)CC4)cc3)n2)ccc1OC1CCS(=O)(=O)CC1",
    "Class": "three"
  },
  {
    "Compound": "C[C@H]1C[C@@H](Oc2ccc(-c3ncnc(Nc4ccc(N5CCN(C6COC6)CC5)cc4)n3)cc2C#N)CCN1C(=O)c1cnn[nH]1",
    "Class": "one"
  },
  {
    "Compound": "N#Cc1cc(-c2ncnc(Nc3ccc(N4CCN(C5COC5)CC4)cc3)n2)ccc1N1CC(O)C1",
    "Class": "two"
  },
  {
    "Compound": "C[C@H](Oc1ccc(-c2ncnc(Nc3ccc(N4CCN(C5COC5)CC4)cc3)n2)cc1C#N)C1CCOCC1",
    "Class": "two"
  },
  {
    "Compound": "C[C@H](O)C(=O)N1CCCC(Oc2ccc(-c3ncnc(Nc4ccc(N5CCN(C6COC6)CC5)cc4)n3)cc2C#N)CC1 (some centres unmarked)",
    "Class": "three"
  },
  {
    "Compound": "N#Cc1cc(-c2ncnc(Nc3ccc(N4CCN(C5COC5)CC4)cc3)n2)ccc1O[C@H]1CCN(C2CCOC2)C[C@H]1F (some centres unmarked)",
    "Class": "three"
  },
  {
    "Compound": "N#Cc1cc(-c2ncnc(Nc3ccc(N4CCN(C5COC5)CC4)cc3)n2)ccc1O[C@H]1CCN(C(=O)[C@H]2CCCCN2)C[C@H]1F",
    "Class": "three"
  },
  {
    "Compound": "Cc1nnsc1COc1ccc(-c2ncnc(Nc3ccc(N4CCN(C5COC5)CC4)cc3)n2)cc1C#N",
    "Class": "three"
  },
  {
    "Compound": "N#Cc1cc(-c2ncnc(Nc3ccc(N4CCN(C5COC5)CC4)cc3)n2)ccc1OC1CCN(C(=O)c2ccc[nH]2)CC1",
    "Class": "two"
  }
]

----------
# Tested System: TBK1 (Homo sapiens (Human), UniProt Q9UHD2)
# Sequence (Q9UHD2 whole entry): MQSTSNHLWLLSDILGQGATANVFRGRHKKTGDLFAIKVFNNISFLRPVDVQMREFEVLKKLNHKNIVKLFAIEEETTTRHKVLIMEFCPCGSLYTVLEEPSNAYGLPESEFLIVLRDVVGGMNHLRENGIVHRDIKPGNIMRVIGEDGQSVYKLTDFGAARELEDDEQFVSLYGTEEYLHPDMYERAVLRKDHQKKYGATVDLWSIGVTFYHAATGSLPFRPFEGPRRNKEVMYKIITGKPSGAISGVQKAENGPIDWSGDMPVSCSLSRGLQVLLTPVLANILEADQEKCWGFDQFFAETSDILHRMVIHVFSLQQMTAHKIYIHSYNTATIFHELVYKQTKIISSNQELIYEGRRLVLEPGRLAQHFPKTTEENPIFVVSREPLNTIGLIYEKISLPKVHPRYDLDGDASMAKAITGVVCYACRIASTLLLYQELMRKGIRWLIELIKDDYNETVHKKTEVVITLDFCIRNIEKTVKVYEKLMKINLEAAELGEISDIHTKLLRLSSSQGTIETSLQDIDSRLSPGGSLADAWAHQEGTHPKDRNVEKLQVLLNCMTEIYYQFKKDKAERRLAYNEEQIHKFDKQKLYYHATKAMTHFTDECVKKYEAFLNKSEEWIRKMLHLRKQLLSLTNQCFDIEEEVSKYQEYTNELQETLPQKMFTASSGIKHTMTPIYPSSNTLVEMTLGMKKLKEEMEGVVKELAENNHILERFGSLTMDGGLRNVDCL
# Assay Notes: TBK1 TR-FRET enzymatic assay;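 also: phosphorylation of a biotinylated Ser/Thr peptide by purified full-length recombinant TBK1, read by TR-FRET after 240 min at 25 °C, IC50 is the geometric mean of at least four runs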
pIC50: −log10 of the molar value.
Cut-off 8 on pIC50, inclusive. At or above means Met; below means Not met.

[
  {
    "Compound": "CC(C)(O)Cn1cc(Nc2ncnc(-c3ccc(O[C@H]4CCN(C(=O)[C@@H](O)CO)C[C@H]4F)c(C#N)c3)n2)cn1",
    "Tested System": "TBK1 (Homo sapiens (Human), UniProt Q9UHD2)",
    "Class": "Met"
  },
  {
    "Compound": "COc1cc(Nc2ncnc(-c3ccc(OC4CCS(=O)(=O)CC4)c(C#N)c3)n2)ccc1N1CCN(C2COC2)CC1",
    "Tested System": "TBK1 (Homo sapiens (Human), UniProt Q9UHD2)",
    "Class": "Met"
  },
  {
    "Compound": "N#Cc1cc(-c2ncnc(Nc3ccc(N4CCN(C5COC5)CC4)cc3)n2)ccc1OCCn1ccnc1",
    "Tested System": "TBK1 (Homo sapiens (Human), UniProt Q9UHD2)",
    "Class": "Not met"
  },
  {
    "Compound": "CN1CC(Oc2ccc(-c3ncnc(Nc4ccc(N5CCN(C6COC6)CC5)cc4)n3)cc2C#N)CCC1=O (centres unmarked)",
    "Tested System": "TBK1 (Homo sapiens (Human), UniProt Q9UHD2)",
    "Class": "Not met"
  },
  {
    "Compound": "N#Cc1cc(-c2ncnc(Nc3ccc(N4CCN(C5COC5)CC4)cc3)n2)ccc1O[C@H]1CCN(C(=O)c2cnn[nH]2)C[C@H]1F",
    "Tested System": "TBK1 (Homo sapiens (Human), UniProt Q9UHD2)",
    "Class": "Met"
  },
  {
    "Compound": "N#Cc1cc(-c2ncnc(Nc3ccc(N4CCN(C5COC5)CC4)cc3)n2)ccc1OC1CCN(C(=O)CO)CC1",
    "Tested System": "TBK1 (Homo sapiens (Human), UniProt Q9UHD2)",
    "Class": "Met"
  },
  {
    "Compound": "N#Cc1cc(-c2ncnc(Nc3ccc(N4CCN(C=O)CC4)c(F)c3)n2)ccc1O[C@H]1CCOC[C@H]1F",
    "Tested System": "TBK1 (Homo sapiens (Human), UniProt Q9UHD2)",
    "Class": "Met"
  },
  {
    "Compound": "C[C@H](O)C(=O)N1CC[C@H](Oc2ccc(-c3ncnc(Nc4ccc(N5CCN(C6COC6)CC5)cc4)n3)cc2C#N)C[C@H]1C",
    "Tested System": "TBK1 (Homo sapiens (Human), UniProt Q9UHD2)",
    "Class": "Not met"
  },
  {
    "Compound": "N#Cc1cc(-c2ncnc(Nc3ccc(C4CCN(C5COC5)CC4)cc3)n2)ccc1O[C@H]1CCN(C(=O)CO)C[C@H]1F",
    "Tested System": "TBK1 (Homo sapiens (Human), UniProt Q9UHD2)",
    "Class": "Met"
  },
  {
    "Compound": "Cc1c[nH]c(C(=O)N2CC[C@H](Oc3ccc(-c4ncnc(Nc5ccc(N6CCN(C7COC7)CC6)cc5)n4)cc3C#N)[C@H](F)C2)n1",
    "Tested System": "TBK1 (Homo sapiens (Human), UniProt Q9UHD2)",
    "Class": "Met"
  },
  {
    "Compound": "N#Cc1cc(-c2ncnc(Nc3cccc(N4CCOCC4)c3)n2)ccc1O[C@@H]1CCNC1",
    "Tested System": "TBK1 (Homo sapiens (Human), UniProt Q9UHD2)",
    "Class": "Not met"
  },
  {
    "Compound": "C[C@H]1CN(C2COC2)CCN1c1ccc(Nc2ncnc(-c3ccc(O[C@H]4CCN(C(=O)CCO)C[C@H]4F)c(C#N)c3)n2)cc1",
    "Tested System": "TBK1 (Homo sapiens (Human), UniProt Q9UHD2)",
    "Class": "Met"
  },
  {
    "Compound": "C[C@H]1CN(C(=O)CO)CC(F)(F)[C@H]1Oc1ccc(-c2ncnc(Nc3ccc(N4CCN(C5COC5)CC4)cc3)n2)cc1C#N (relative stereo)",
    "Tested System": "TBK1 (Homo sapiens (Human), UniProt Q9UHD2)",
    "Class": "Met"
  },
  {
    "Compound": "N#Cc1cc(-c2ncnc(Nc3ccc(N4CCN(C5COC5)CC4)cc3)n2)ccc1O[C@H]1CCN(C(=O)c2cnc[nH]2)CC1(F)F",
    "Tested System": "TBK1 (Homo sapiens (Human), UniProt Q9UHD2)",
    "Class": "Met"
  },
  {
    "Compound": "C[C@H](O)C(=O)N1CC[C@H](Oc2ccc(-c3ncnc(Nc4ccc(N5CCC[C@@H](O)C5)cc4)n3)cc2C#N)[C@H](F)C1",
    "Tested System": "TBK1 (Homo sapiens (Human), UniProt Q9UHD2)",
    "Class": "Met"
  },
  {
    "Compound": "N#CCC(=O)N1CC[C@H](Oc2ccc(-c3ncnc(Nc4ccc(N5CCN(C6COC6)CC5)c(F)c4)n3)cc2C#N)[C@H](F)C1",
    "Tested System": "TBK1 (Homo sapiens (Human), UniProt Q9UHD2)",
    "Class": "Met"
  },
  {
    "Compound": "N#Cc1cc(-c2ncnc(Nc3ccc(N4CCN(C5COC5)CC4)cc3)n2)ccc1N1CCCC1=O",
    "Tested System": "TBK1 (Homo sapiens (Human), UniProt Q9UHD2)",
    "Class": "Not met"
  },
  {
    "Compound": "Cc1cc(Nc2ncnc(-c3ccc(O[C@H]4CCN(C(=O)CC#N)C[C@H]4F)c(C#N)c3)n2)ccc1C1CCN(C)CC1",
    "Tested System": "TBK1 (Homo sapiens (Human), UniProt Q9UHD2)",
    "Class": "Met"
  },
  {
    "Compound": "C[C@@H](CO)C(=O)N1CC[C@H](Oc2ccc(-c3ncnc(Nc4ccc(N5CCN(C6COC6)CC5)cc4)n3)cc2C#N)[C@H](F)C1",
    "Tested System": "TBK1 (Homo sapiens (Human), UniProt Q9UHD2)",
    "Class": "Not met"
  },
  {
    "Compound": "N#CCC(=O)N1CC[C@H](Oc2ccc(-c3ncnc(Nc4ccc(N5CCN(C6COC6)CC5)cc4)n3)cc2C#N)C(F)(F)C1",
    "Tested System": "TBK1 (Homo sapiens (Human), UniProt Q9UHD2)",
    "Class": "Met"
  }
]
